# testedTarget: Caspase-1 (Homo sapiens, UniProt P29466, D381E)
# Sequence (P29466 120-297 limits assumed): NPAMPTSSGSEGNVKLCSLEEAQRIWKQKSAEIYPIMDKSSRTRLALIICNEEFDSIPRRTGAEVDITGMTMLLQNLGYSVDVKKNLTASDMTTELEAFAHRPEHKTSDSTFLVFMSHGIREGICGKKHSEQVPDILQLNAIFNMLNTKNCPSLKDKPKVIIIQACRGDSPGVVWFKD
# Sequence (P29466 317-404 D381E limits assumed): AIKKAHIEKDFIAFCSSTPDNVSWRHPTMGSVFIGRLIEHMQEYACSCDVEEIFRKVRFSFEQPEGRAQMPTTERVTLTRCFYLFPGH
# assayComment: Compound was tested for inhibitory activity against N-His (D381E) Interleukin -1 beta converting enzyme (combinatorially prepared compound)
Kindly supply the reported pIC50 values for the records listed here.
// pIC50: -log10(molar conc.)

Problem: Name the recorded pIC50 for "O=C(O)C[C@H](NC(=O)OCc1ccccc1)C(=O)COC(=O)CCc1ccccc1" .
Result: 4.92

Problem: Name the recorded pIC50 for "O=C(O)C[C@H](NC(=O)OCc1ccccc1)C(=O)COC(=O)Cc1c(Cl)cccc1Cl" .
Result: 6.13

Problem: Name the recorded pIC50 for "O=C(O)C[C@H](NC(=O)OCc1ccccc1)C(=O)COC(=O)Cc1c(Cl)ccc(Cl)c1Cl" .
Result: 6.03

Problem: Name the recorded pIC50 for CC(=O)NC(C(=O)N[C@@H](CC(=O)O)C(=O)COC(=O)Cc1c(Cl)ccc(Cl)c1Cl)C(C)C (stereo not given in full) .
Result: 8.30

Problem: Name the recorded pIC50 for CC(=O)NC(C(=O)N[C@@H](CC(=O)O)C(=O)COC(=O)Cc1c(Cl)cccc1Cl)C(C)C (stereo not given in full) .
Result: 8.30
